test system: uninfected Vero cells; assay: in vitro; type: cell-based; conditions: African green monkey
Hi there, I'd appreciate the recorded CC50 for every entry that follows.
Numbers only here, please. The scale is µM.

Exam item: Item COc1cc(NC(C(=O)c2c[nH]c3c(C)c(OC)ccc23)c2ccc(F)cc2OC)cc(OCCO)c1 (single isomer, unassigned) [Compound 11A] has what recorded CC50?
Marked response: 12

Exam item: Try the molecule COc1cc(NC(C(=O)c2c[nH]c3cc(OC)c(C)cc23)c2ccc(F)cc2OC)cc(OCCO)c1 (single isomer, unassigned)
Marked response: 17

Exam item: Try this molecule too: COc1cc(NC(C(=O)c2c[nH]c3cc(F)c(F)cc23)c2ccc(F)cc2OC)cc(OCCO)c1 (single isomer, unassigned) [Compound 10B]
Marked response: 11

Exam item: Can you handle COc1cc(NC(C(=O)c2c[nH]c3c(C)c(F)ccc23)c2ccc(F)cc2OC)cc(OCCO)c1 (single isomer, unassigned) next?
Marked response: 15

Exam item: Next record, please: COc1cc(NC(C(=O)c2c[nH]c3cc(OC)c(F)cc23)c2ccc(F)cc2OC)cc(OCCO)c1 (single isomer, unassigned)
Marked response: 18

Exam item: Next molecule: COc1cc(NC(C(=O)c2c[nH]c3c(C)cc(F)cc23)c2ccc(F)cc2OC)cc(OCCO)c1 (single isomer, unassigned)
Marked response: 14

Exam item: Follow-up entry: COc1cc(NC(C(=O)c2c[nH]c3c(F)cc(C)cc23)c2ccc(F)cc2OC)cc(OCCO)c1 (single isomer, unassigned) [Compound 12B]
Marked response: 14
